Data origin, for the record: patent US20120238493A1

SYSTEM: T1, GIP receptor (UniProt P48546 22-466, limits assumed)
T1 sequence (looked up): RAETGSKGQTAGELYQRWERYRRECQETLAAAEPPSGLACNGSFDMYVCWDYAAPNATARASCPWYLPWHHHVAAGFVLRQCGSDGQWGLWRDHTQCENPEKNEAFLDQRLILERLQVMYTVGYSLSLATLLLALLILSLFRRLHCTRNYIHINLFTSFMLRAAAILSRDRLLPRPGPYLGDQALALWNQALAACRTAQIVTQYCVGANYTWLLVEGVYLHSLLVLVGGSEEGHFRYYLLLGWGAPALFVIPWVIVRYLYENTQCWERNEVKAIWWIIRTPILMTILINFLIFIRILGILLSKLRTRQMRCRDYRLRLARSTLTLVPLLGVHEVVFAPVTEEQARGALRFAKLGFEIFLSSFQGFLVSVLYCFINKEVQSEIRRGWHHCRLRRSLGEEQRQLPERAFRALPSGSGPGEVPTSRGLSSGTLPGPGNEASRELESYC
ASSAY NOTES: cell-based or functional assay
Bridges are numbered along the chain shown (N, C = ends). Where no end group is shown, it is not given here. Side-chain parts run from the residue outwards. [ ]: non-standard residue; d: D form. PEG40kDa = 40 kDa polyethylene glycol attached; Aib = CC(C)(N)C(=O)O
Mark YES only for EC50 (cAMP reporter) values smaller than 2 nM; exact matches and larger values are NO.

Use the examples below as a reference point.
BINDER	ANSWER LABEL
Y[Aib]PGTFISDYSIAMDKIHQQDFVNWLLAQKGKKNWLKHNITQ-NH2 (not fully specified) [mt-219 (SEQ ID NO: 21)]	NO
Y[Aib]PGTFISDYSIAMDKIHQQDFVC(PEG40kDa)WLLAQKGKKNWLKHNITQ-NH2 (not fully specified) [mt-228 (SEQ ID NO: 26)]	NO
Y[Aib]PGTFISDYSIAMDKIHQQDFVCWLLAQKGKKNWLKHNITQ-NH2 (not fully specified) [mt-226 (SEQ ID NO: 24)]	YES
Y[Aib]QGTFTSDYSIYLDEQAAKEFVNWLLAGGPSSGAPPPSK-NH2 (not fully specified) [mt-227 (SEQ ID NO: 25)]	YES
YXEGTFISDYSIAMDKIHQQDFVNWLLAQKGKKNWLKHNITQ (not fully specified; AIB at position 2; C-terminal amide; Glu16-Lys20 lactam in some Table 3 peptides, absent in others (which ones is not stated)) [mt-218 (SEQ ID NO: 20)]	NO

Ask: Please check: EC50 (cAMP reporter) for Y[Aib]EGTFISDYSIAMDKIHQQDFVNWLLAQKGKKNWLKHNITQ-NH2 (not fully specified) [mt-217 (SEQ ID NO: 19)] , strictly under 2 nM or not?
Result: NO

Ask: Find out if reported EC50 (cAMP reporter) for Y[Aib]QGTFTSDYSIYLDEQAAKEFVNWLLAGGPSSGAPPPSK([Ala-Cys(PEG 40 kDa)-Ac])-NH2 (lactam 16-20) [mt-225 (SEQ ID NO: 23)] is less than 2 nM
Result: YES

Ask: EC50 (cAMP reporter) under 2 nM? Item: Y[Aib]EGTFISDYSIAMDKIHQQDFVCWLLAQKGKKNWLKHNITQ-NH2 (not fully specified) [mt-220 (SEQ ID NO: 22)]
Result: NO
